These entries and their values trace back to patent US6218431A.

Target: glucagon receptor (Homo sapiens)
Construct: expressed in transfected cells; host or cells: Chinese Hamster Ovary cells (CHO-HGR), membranes
Test: glucagon receptor binding assay (125I-glucagon, CHO-HGR membranes)
Details: 125I-glucagon; 60 min at room temperature; read-out: IC50
pIC50: −log10 of the molar value.
parameter-measured: pIC50

molecule=CCCCCc1c(C(C)C)nc(C(C)C)c(CO)c1-c1cccc(O)c1 observed_result=5.22

A = Cc1ccccc1/C=C/c1c(C(C)C)nc(C(C)C)c(CO)c1-c1ccc(F)cc1
B = CCCCCc1c(C(C)C)nc(C(C)C)c(C(O)CO)c1-c1ccc(F)cc1 (racemic)
C = CC(C)c1ccc(SCc2c(C(C)C)nc(C(C)C)c(CO)c2-c2ccc(F)cc2)cc1
Your job: order these 3 records by pIC50, ascending. Response field: labels, in requested order.
B, C, A
(B: 4.92, C: 5.77, A: 6.12)

* * *

Target: glucagon receptor (Homo sapiens)
Construct: expressed in transfected cells; host or cells: Chinese Hamster Ovary cells (CHO-HGR), membranes
Experiment: glucagon receptor binding assay (125I-glucagon, CHO-HGR membranes)
Conditions: 125I-glucagon; 60 min at room temperature; read-out: IC50
parameter-measured: IC50 (µM)

Example results:
compound=Cc1ccc(SCc2c(C(C)C)nc(C(C)C)c(CO)c2-c2ccc(F)cc2)cc1 observed_result=0.9
compound=Cc1c(C(C)C)nc(C(C)C)c(CO)c1-c1ccc(F)cc1 observed_result=7.5
compound="C=CCC(O)c1nc(C(C)C)c(CO)c(-c2ccc(F)cc2)c1CCCCC (stereo not drawn)" observed_result=18
compound=Cc1ccccc1SCc1c(C(C)C)nc(C(C)C)c(CO)c1-c1ccc(F)cc1 observed_result=1.5
compound="CCCCCc1c(C(C)C)nc(C(C)C)c(C(O)C(F)(F)F)c1-c1ccc(F)cc1 (racemic)" observed_result=13

1 = COC(C)c1c(C(C)C)nc(C(C)C)c(CO)c1-c1ccc(F)cc1 (racemic)
2 = CCCCCc1c(CCc2ccccc2)nc(C(C)C)c(CO)c1-c1ccc(F)cc1
3 = CCCCc1c(C(C)C)nc(C(C)C)c(CO)c1-c1ccccc1
4 = CC(C)c1nc(C(C)C)c(CNC2CC2)c(-c2ccc(F)cc2)c1CO
# rank_down: sort by IC50, max first Response field: labels, in requested order.
1, 4, 2, 3
(1: 14 µM, 4: 6 µM, 2: 1.3 µM, 3: 0.75 µM)

* * *

Target: glucagon receptor (Homo sapiens, UniProt P47871)
Construct: expressed in transfected cells; host or cells: Chinese Hamster Ovary cells (CHO-HGR), membranes
Sequence (P47871 26-477): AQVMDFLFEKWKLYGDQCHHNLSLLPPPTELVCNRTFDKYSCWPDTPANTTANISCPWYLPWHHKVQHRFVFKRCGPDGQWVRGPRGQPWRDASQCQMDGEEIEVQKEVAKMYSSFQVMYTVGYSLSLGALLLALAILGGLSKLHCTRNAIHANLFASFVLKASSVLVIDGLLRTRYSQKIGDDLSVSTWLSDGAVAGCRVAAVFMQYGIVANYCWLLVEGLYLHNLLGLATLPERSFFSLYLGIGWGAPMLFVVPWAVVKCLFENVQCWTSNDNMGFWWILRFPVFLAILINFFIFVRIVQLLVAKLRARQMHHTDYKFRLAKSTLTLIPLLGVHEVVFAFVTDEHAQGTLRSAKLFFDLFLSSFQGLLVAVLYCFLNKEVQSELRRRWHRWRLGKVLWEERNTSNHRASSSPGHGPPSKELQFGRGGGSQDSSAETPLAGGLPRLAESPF
Experiment: glucagon receptor binding assay (125I-glucagon, CHO-HGR membranes)
Conditions: 125I-glucagon; 60 min at room temperature; read-out: IC50
pIC50: −log10 of the molar value.
parameter-measured: pIC50

Example results:
compound=CC(C)c1cc(C(C)C)c(CSc2c(F)c(F)cc(F)c2F)c(-c2ccc(F)cc2)c1CO observed_result=5.70
compound=Cc1cccc(SCc2c(C(C)C)nc(C(C)C)c(CO)c2-c2ccc(F)cc2)c1 observed_result=5.96
compound=CCCCCc1c(COCC)nc(C(C)C)c(CO)c1-c1ccc(F)cc1 observed_result=5.05

I = CCCc1c(C(C)C)nc(C(C)C)c(CO)c1-c1ccc(F)cc1
II = CCc1c(C(C)C)cc(C(C)C)c(C(C)O)c1-c1ccc(F)cc1O (stereo not drawn)
# min-compare on pIC50 between I and II State the label of the item chosen.
I

P = CC(C)c1nc2c(c(-c3ccc(F)cc3)c1CO)CCCC2(C)C
Q = CCCCCc1c(C(C)=O)nc(C(C)C)c(CO)c1-c1ccc(F)cc1
Could you please tell me which of these two has the higher pIC50: P or Q ? State the label of the item chosen.
P

P = CCCCCc1c(C(C)O)nc(C(C)C)c(CO)c1-c1ccc(F)cc1 (stereo not drawn)
Q = CCCCCCC=Cc1c(C(C)C)nc(C(C)C)c(CO)c1-c1ccc(F)cc1
# min-compare on pIC50 between P and Q State the label of the item chosen.
P
(P: 4.74, Q: 5.74)
